Measured pKi of individual entries
target or test system: mouse SphK2 (Mus musculus, UniProt Q9JIA7)
Sequence (Q9JIA7 whole entry): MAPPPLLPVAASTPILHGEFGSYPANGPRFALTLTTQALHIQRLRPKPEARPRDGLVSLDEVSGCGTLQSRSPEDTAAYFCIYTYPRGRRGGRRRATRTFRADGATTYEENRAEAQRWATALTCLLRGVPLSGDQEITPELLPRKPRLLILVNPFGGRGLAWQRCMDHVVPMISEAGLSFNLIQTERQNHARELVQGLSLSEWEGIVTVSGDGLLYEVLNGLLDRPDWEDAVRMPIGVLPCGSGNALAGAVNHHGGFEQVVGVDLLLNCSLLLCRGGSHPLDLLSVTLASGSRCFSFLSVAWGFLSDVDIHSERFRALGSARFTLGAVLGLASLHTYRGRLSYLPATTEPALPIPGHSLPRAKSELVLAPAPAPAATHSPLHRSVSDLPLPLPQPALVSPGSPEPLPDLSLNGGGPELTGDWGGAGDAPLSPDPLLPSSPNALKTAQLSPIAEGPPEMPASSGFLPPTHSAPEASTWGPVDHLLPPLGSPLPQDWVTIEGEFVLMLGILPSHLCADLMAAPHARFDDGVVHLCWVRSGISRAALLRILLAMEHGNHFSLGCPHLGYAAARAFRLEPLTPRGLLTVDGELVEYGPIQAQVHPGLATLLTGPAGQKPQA
method notes: Sphingosine kinase assay, recombinant SphK2
pKi: −log10 of the molar value.
measured metric: pKi

>>> print(df.to_string())
                           substance_smiles  measured_metric  readout_value
0  CCCCCCCCc1ccc(C(=O)N[C@@H](C)C(=N)N)cc1.Cl              pKi           4.70
1  CCCCCCCCCCCCc1ccc(NC(=O)C2(C(=N)N)CC2)cc1.Cl              pKi           5.22

* * *

target or test system: Human SphK1 (Homo sapiens, UniProt Q9NYA1)
Sequence (Q9NYA1 whole entry): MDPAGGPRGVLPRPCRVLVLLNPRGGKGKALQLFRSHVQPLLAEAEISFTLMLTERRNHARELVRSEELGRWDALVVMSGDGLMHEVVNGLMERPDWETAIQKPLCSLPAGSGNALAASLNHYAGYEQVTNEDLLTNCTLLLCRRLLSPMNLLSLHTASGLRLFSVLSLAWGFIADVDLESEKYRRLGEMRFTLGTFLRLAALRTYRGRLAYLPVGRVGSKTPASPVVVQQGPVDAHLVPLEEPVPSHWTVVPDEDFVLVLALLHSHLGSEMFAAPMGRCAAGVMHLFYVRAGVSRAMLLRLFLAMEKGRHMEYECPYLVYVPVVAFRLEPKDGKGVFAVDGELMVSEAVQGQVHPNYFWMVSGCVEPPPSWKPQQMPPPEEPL
method notes: Sphingosine kinase assay, recombinant SphK1
measured metric: Ki (µM)

                                   molecule  readout_value
0  CCCCCCCCc1ccc(C(=O)N[C@@H](C)C(=N)N)cc1.Cl [compound 9]             55
